Procedure Details: CC50 assay (cytopathology in HEp-2 cells)
Type: cell-based
Assay Setup: human, HEp-2 cells, 4 days, CellTiter-Glo; Table 1; read-out: RSV CC50
Measurement Label: CC50 at 4 days (µM)
Give the value in µM but do not write µM after it.

## Input Would you kindly share the measured CC50 at 4 days for CCC(CC)COC(=O)[C@H](C)N[P@](=O)(OC[C@H]1O[C@@](C#N)(c2ccc3c(N)ncnn23)[C@H](OC(=O)C(C)C)[C@@H]1OC(=O)C(C)C)Oc1ccccc1 ?
## Output 5.49

## Input May I ask what CC50 at 4 days has been recorded for COC(=O)[C@H](C)NP(=O)(OC[C@H]1O[C@@](C#N)(c2ccc3c(N)ncnn23)[C@H](O)[C@@H]1O)Oc1ccc(C(C)(C)C)cc1 (some centres unmarked) ?
## Output 22.9

## Input Endpoint output: CC50 at 4 days of CCC(CC)COC(=O)[C@H](C)NP(=O)(OC[C@H]1O[C@@](C#N)(c2ccc3c(N)ncnn23)[C@H](OC(=O)C(C)C)[C@@H]1OC(=O)C(C)C)Oc1cc(C)ccc1C(C)C (some centres unmarked) . Value?
## Output 5.86

## Input Param item = CCOC(=O)[C@H](C)N[P@](=O)(OC[C@H]1O[C@@](C#N)(c2ccc3c(N)ncnn23)[C@H](OC(=O)C(C)C)[C@@H]1OC(=O)C(C)C)Oc1ccccc1 ; retrieve measured CC50 at 4 days.
## Output 10.3

## Input Name the reported CC50 at 4 days value associated with the molecule CCC(CC)COC(=O)[C@H](C)N[P@](=O)(OC[C@H]1O[C@@](C#N)(c2ccc3c(=N)n(COP(=O)(O)O)cnn23)[C@H](O)[C@@H]1O)Oc1ccccc1
## Output 7.45

###

Procedure Details: CC50 assay (cytopathology in HEp-2 cells)
Type: cell-based
Assay Setup: human, HEp-2 cells, 4 days, CellTiter-Glo; Table 1; read-out: RSV CC50
Please use the following CC50 at 4 days ranges when assigning a class: c1: < 4 µM; c2: ≥ 4 µM and < 6 µM; c3: ≥ 6 µM

## Input Class label required: CC(C)C(=O)O[C@H]1[C@@H](OC(=O)C(C)C)[C@](C#N)(c2ccc3c(N)ncnn23)O[C@@H]1COP(=O)(N[C@@H](C)C(=O)OC1CCC1)Oc1ccccc1 (stereo partly shown) [Example 21]
## Output c1

## Input Bin this entry: CCC(CC)COC(=O)[C@H](C)NP(=O)(OC[C@H]1O[C@@](C#N)(c2ccc3c(N)ncnn23)[C@H](O)[C@@H]1O)Oc1c(C)cccc1C (stereo partly shown) [Example 19]
## Output c3

## Input Which of the defined bands does the recorded CC50 at 4 days of CCOCCOCCOC(=O)[C@H](C)NP(=O)(OC[C@H]1O[C@@](C#N)(c2ccc3c(N)ncnn23)[C@H](O)[C@@H]1O)Oc1ccccc1 (stereo partly shown) [Example 22] sit within?
## Output c3

## Input Class (by measured CC50 at 4 days) for COC(C)(C)COC(=O)[C@H](C)NP(=O)(OC[C@H]1O[C@@](C#N)(c2ccc3c(N)ncnn23)[C@H](OC(=O)C(C)C)[C@@H]1OC(=O)C(C)C)Oc1ccccc1 (stereo partly shown) [Example 25]
## Output c2

## Input Lab log: CCOC(=O)[C@H](C)NP(=O)(OC[C@H]1O[C@@](C#N)(c2ccc3c(N)ncnn23)[C@H](OC(=O)CC)[C@@H]1OC(=O)CC)Oc1ccccc1 (stereo partly shown) [Example 11] — assign CC50 at 4 days category
## Output c3

## Input Which class is correct for the following compound? CCC(CC)COC(=O)[C@H](C)NP(=O)(OC[C@H]1O[C@@](C#N)(c2ccc3c(N)ncnn23)[C@H](O)[C@@H]1O)Oc1ccc(C(C)(C)C)cc1 (mixture of isomers) [Example 13]
## Output c1

## Input Class for CCC(CC)COC(=O)[C@H](C)NP(=O)(OC[C@H]1O[C@@](C#N)(c2ccc3c(N)ncnn23)[C@H](OC(=O)C(C)C)[C@@H]1OC(=O)C(C)C)Oc1c(C)cccc1C (stereo partly shown) [Example 20] ?
## Output c2

## Input Which class is correct for the following compound? COC(=O)[C@H](C)N[P@](=O)(OC[C@H]1O[C@@](C#N)(c2ccc3c(N)ncnn23)[C@H](OC(=O)C(C)C)[C@@H]1OC(=O)C(C)C)Oc1ccccc1 [Example 4]
## Output c2

## Input Textbook exercise: identify the category of the compound given here, C[C@H](NP(=O)(OC[C@H]1O[C@@](C#N)(c2ccc3c(N)ncnn23)[C@H](O)[C@@H]1O)Oc1ccc(C(C)(C)C)cc1)C(=O)OC1CC2(CCC2)C1 (stereo partly shown) [Example 29] , according to its measured value.
## Output c1
